# assayComment: Human HepG2 cell viability assay in 384 well format
# Format: toxicity, cell-based
# Set-up: dose 125 nL, time 70.5 hour; concentration not given beside the values
# runParameters: HepG2 cells, read-out: Inhibition
Each entry below carries its reported cytotoxicity at 70.5 h.

Look over these answered cases.
CCN(CC1CCCN(CCc2cccc(OC)c2)C1)C(=O)CCSC (stereo unspecified)    -6.12%
CSc1nc(C2CC2)nc(C)c1C(=O)NCc1ccco1    16.1%
CC(C)c1nc(CNc2ccc(CNS(C)(=O)=O)cc2)cs1    -8.66%

Consider O=C(CN1CCS(=O)(=O)CC1)NC1CCCc2ccccc21 (stereo unspecified) . Its measured cytotoxicity at 70.5 h is -7.89%

Consider CCOc1ccc(CN(C)C(=O)NC(C)c2nncn2C)cc1 (stereo unspecified) . Its measured cytotoxicity at 70.5 h is 8.83%

Consider CCn1cc2c(n1)CN(Cc1ccoc1)CC2COCC1CC1 (stereo unspecified) . Its measured cytotoxicity at 70.5 h is 6.36%

Consider COc1ccc(CN(Cc2cccnc2)CC2CCCO2)c(OC)c1 (stereo unspecified) . Its measured cytotoxicity at 70.5 h is -5.79%

Consider CCS(=O)(=O)N1CCN(C(C)c2ncc(-c3ccccc3)o2)CC1 (stereo unspecified) . Its measured cytotoxicity at 70.5 h is -19.2%

Consider "CCSCc1ccc(C(=O)N2CCCN(CC(N)=O)CC2)cc1" . Its measured cytotoxicity at 70.5 h is -5.22%

Consider "COC(=O)NC1(C(=O)Nc2ccc(-c3cc[nH]n3)cc2)CCCC1" . Its measured cytotoxicity at 70.5 h is -0.955%

Consider "Cc1c(C(=O)N2CCC(C(=O)c3nc4ccccc4s3)CC2)cnn1C" . Its measured cytotoxicity at 70.5 h is -0.714%

Consider "O=C(c1ccc2nncn2c1)N1CCSC2(CCCCC2)C1" . Its measured cytotoxicity at 70.5 h is 11.5%

---

Each entry below carries its reported cytotoxicity at 70.5 h.
# assayComment: Human HepG2 cell viability assay in 384 well format
# Assay type: toxicity, cell-based
# Design: dose 125 nL, time 70.5 hour; concentration not given beside the values
# runParameters: HepG2 cells, read-out: Inhibition
// return numeric value only (unit: %, not printed)

Look over these answered cases.
O=C(CCC1CCCN(S(=O)(=O)C2CC2)C1)Nc1ccc(Cl)cc1 (configuration not stated)    34.5
NC(=O)N1CCCN(CC(=O)NCCc2c(F)cccc2F)CC1    -6.21
O=C(CCN1CCc2[nH]nc(C(F)(F)F)c2C1)Nc1ccccc1    -2.13
CCCc1nc(C)c(C(=O)NCCNc2ncccn2)s1    -6.59
Cc1cc(NC(=O)CCn2nc(C)c3ccccc32)n(C(C)C)n1    -18
CCOc1ccc(S(=O)(=O)NCCCc2ccc(N(C)C)cc2)cc1F    0.733

Consider "O=C(c1ccno1)N1CCO[C@]2(CCC[C@@H]2COCc2ccncc2)C1" . Its measured cytotoxicity at 70.5 h is -2.51

---

Each entry below carries its reported cytotoxicity at 70.5 h.
# assayComment: Human HepG2 cell viability assay in 384 well format
# Type: toxicity, cell-based
# Design: dose 125 nL, time 70.5 hour; concentration not given beside the values
# runParameters: HepG2 cells, read-out: Inhibition

Cc1cccc(C(=O)Nc2c(C(N)=O)n[nH]c2C)c1C    -5.24%
Cc1cc(C)c(CNC(=O)NCc2nnc3n2CCC3)c(=O)[nH]1    14.7%
CCNC(=O)NC[C@H]1C[C@@H]2CCN1C[C@@H]2c1cc(-c2cccs2)nn1C    -3.63%

Consider CCn1nc(C)c(CCN2CC3(CCOC3)CCC2=O)c1C (centres undefined) . Its measured cytotoxicity at 70.5 h is 25.5%

---

# assayComment: Human HepG2 cell viability assay in 384 well format
# Assay type: toxicity, cell-based
# Parameters: dose 125 nL, time 70.5 hour; concentration not given beside the values
# runParameters: HepG2 cells, read-out: Inhibition
Each entry below carries its reported cytotoxicity at 70.5 h.
// return numeric value only (unit: %, not printed)

Look over these answered cases.
COc1ccc2c(c1)CCCN(CC(=O)NCC1CCCO1)C2 (stereo not drawn)    -5.84
CCOC(=O)CCCNC(=O)CN1CCN(c2ncccn2)CC1    -13.6
CNC(=O)C1(C)CN(Cc2cn(C)c3ccc(F)cc23)CCO1 (stereo not drawn)    -9.03
COCCNc1nc(-c2ccc(S(=O)(=O)N3CCCCCC3)cc2)cs1    -5.83
CC(=O)N[C@@H]1CN(CC(=O)NCc2ccccc2C)C[C@H]1C(C)C    -6.75
CN(C)c1ncccc1CNc1cc(N2CCCC2CO)ncn1 (stereo not drawn)    10.5
Cc1cnc(CNc2ncc(C)c(-c3cnn(C)c3)n2)cn1    -14.1
CCCS(=O)(=O)N1C[C@H]2OC(=O)N(CCc3cccc(Cl)c3)[C@H]2C1    -4.21

Consider "O=C(Nc1nncs1)N1CCC(CCc2ccc(O)cc2)CC1" . Its measured cytotoxicity at 70.5 h is -14.7

Consider Cn1cccc1CN(C(=O)CC(CC(=O)O)c1cccs1)C1CC1 (stereo not drawn) . Its measured cytotoxicity at 70.5 h is -9.4

Consider "CC(C)(C)OC(=O)N1CCN(C(=O)c2sccc2C2CC2)CC1" . Its measured cytotoxicity at 70.5 h is -10

Consider Cc1cnn(C2CCCN(C(=O)c3c(C)oc4nc[nH]c(=O)c34)C2)c1 (stereo not drawn) . Its measured cytotoxicity at 70.5 h is -9.75

Consider CC(C)(C)C(=O)NCCC1CN(Cc2ccccc2F)CCO1 (stereo not drawn) . Its measured cytotoxicity at 70.5 h is -9.52

Consider "COc1cccc(N2CCN(Cc3ccc4occc4c3)CC2=O)c1" . Its measured cytotoxicity at 70.5 h is -12.9

Consider NC(=O)CC1c2cccnc2C(=O)N1Cc1ccccc1 (stereo not drawn) . Its measured cytotoxicity at 70.5 h is -6.46

Consider "CN(Cc1noc2c1CCCC2)C(=O)Nc1cccc(S(N)(=O)=O)c1" . Its measured cytotoxicity at 70.5 h is 17.1

Consider CC(C)c1ccc(C(=O)N2CCOCC2CC(=O)c2ccco2)cn1 (stereo not drawn) . Its measured cytotoxicity at 70.5 h is -5.67

Consider "COc1ccccc1OCC(=O)NS(=O)(=O)c1cc(F)ccc1F" . Its measured cytotoxicity at 70.5 h is -4.75

---

# assayComment: Human HepG2 cell viability assay in 384 well format
# Assay type: toxicity, cell-based
# Parameters: dose 125 nL, time 70.5 hour; concentration not given beside the values
# runParameters: HepG2 cells, read-out: Inhibition
measure: cytotoxicity at 70.5 h (%)
// return numeric value only (unit: %, not printed)

Look over these answered cases.
O=S(=O)(NC(CO)Cc1c[nH]c2ccccc12)c1cncc(F)c1 (stereo unspecified)    -4.62
COc1ncnc(N(C)C)c1NC(=O)c1cscc1C    -9.9
COCc1cc(CNCc2c(C)n(CC(N)=O)c3ccccc23)n[nH]1    -9.7
Cc1ccc(-c2noc(CN3CCC(N4CCNC4=O)CC3)n2)cc1    20.8
CSCCN1CCC(NC(=O)c2cccc(C3CCCNC3)c2)CC1 (stereo unspecified)    -24.6
O=C1NCCN(Cc2ccccc2)C1CC(=O)N1CCc2n[nH]cc2C1 (stereo unspecified)    19.3
COc1ccc(SC(C)C(=O)N2CCC(C(=O)N3CCCC3)CC2)cc1 (stereo unspecified)    -5.49
O=C(O)C1(Cc2ccc(Cl)cc2)CCN(c2ncccc2F)CC1    -4.45

Consider "COc1cccc(CNCc2ccc(F)c(Cl)c2)c1O" . Its measured cytotoxicity at 70.5 h is 27

Consider "Cc1ocnc1C(=O)N1CCC2(CC1)c1nc[nH]c1CCN2CC(C)C" . Its measured cytotoxicity at 70.5 h is 27.1

Consider OCC1CCCCN1CCCNCc1cc(O)c2cc(F)ccc2n1 (stereo unspecified) . Its measured cytotoxicity at 70.5 h is -4.1

---

# assayComment: Human HepG2 cell viability assay in 384 well format
# Type: toxicity, cell-based
# Design: dose 125 nL, time 70.5 hour; concentration not given beside the values
# runParameters: HepG2 cells, read-out: Inhibition
measure: cytotoxicity at 70.5 h (%)
// return numeric value only (unit: %, not printed)

CSCC[C@H](N)c1nnc(SCc2cc(C)ccc2C)o1    -5.14
O=C(c1cccnc1N1CCCCC1)N1CCCC(n2ccnc2)C1 (stereo not given)    1.48
CC(C)Oc1ccc(CNC(=O)c2cc(C(N)=O)cs2)cc1F    -12.2
O=C(CCn1cccn1)N1C[C@@H]2CC[C@H](C1)N(Cc1ccccn1)C2=O    -2.38
Cc1nc(C)c(C(=O)N2C[C@@H](C(=O)O)[C@H](C3CC3)C2)s1    -1.71

Consider "O=C(c1ccoc1)N1CCO[C@]2(CCC[C@@H]2COCc2ccncc2)C1" . Its measured cytotoxicity at 70.5 h is 1.38

Consider Clc1ccc(N2CCC(C3CCN(Cc4cccnc4)CC3)C2)nc1 (stereo not given) . Its measured cytotoxicity at 70.5 h is -8.52

Consider Cc1ncc(C(=O)N2CCOC(C(=O)N3CCCCC3)C2)c(C)n1 (stereo not given) . Its measured cytotoxicity at 70.5 h is -3.05
